# System: IGROV1 ovarian
# protocol: NCI-60 one-dose screen, 48 h (100 = growth as untreated, 0 = no growth, -100 = all killed)
# assay.conditions: 10 µM unless noted
The panel holds about 83,000 compounds, 20% with a hit somewhere; the sample as a whole holds those more often.
endpoint.label: growth (%)
Provide the reading as a plain figure in %.

In plain terms, COc1cc(C(=O)/C=C/c2cc(C(=O)c3cc(OC)c(OC)c(OC)c3)ccc2OC)ccc1N has a documented growth of -12.7

In plain terms, CC(C)CCC[C@@H](C)[C@H]1CC[C@H]2[C@@H]3CC[C@H]4C/C(=N/O)CC[C@]4(C)[C@H]3CC[C@]12C has a documented growth of 111

In plain terms, CC1=NN2C(=NC3=C(CCC/C3=C\c3ccc(Cl)cc3)C2c2ccc(Cl)cc2)S1 (stereo not drawn) has a documented growth of 103

In plain terms, COc1cc(NCCCN=C(N)NC(N)=NC(C)C)c2ncccc2c1 has a documented growth of -12.8

In plain terms, COc1ccc2c(c1)C(C)Cc1c(N(C)C)ncnc1N2C (stereo not drawn) has a documented growth of 54.4

In plain terms, CC(C)(C)OC(=O)N[C@@H](Cc1ccccc1)C(=O)N(Cc1ccccc1)C1(C(=O)NCc2ccccc2)CCN(Cc2ccccc2)CC1 has a documented growth of 59.1

In plain terms, Nc1nc(-c2ccccc2)cs1 has a documented growth of 113

In plain terms, CC(C)C[C@H](NC(=O)[C@H](Cc1ccccc1)n1ccc(N2CCCCC2)cc1=O)B(O)O has a documented growth of 46.2

In plain terms, COc1ccccc1OCC(=O)Nc1sc2c(c1C(N)=O)CCC2 has a documented growth of -10.4

In plain terms, Cc1ccc(-c2csc3nc(C)c(CCCl)c(=O)n23)cc1 has a documented growth of 78.8

In plain terms, COc1ccc(N=C2NN=C(c3ccc(F)cc3)CS2)cc1OC has a documented growth of -11.7

In plain terms, CC/C(=C(\c1ccc(O)cc1)c1ccc(OCCN(C)CCN(C)C(=O)CCC(=O)c2c(C)[nH]c(/C=C3\N=C(c4ccc[nH]4)C=C3OC)c2C)cc1)c1ccccc1 has a documented growth of 81.6

In plain terms, Cc1oc2nc[nH]c(=O)c2c1C(=O)/C=C/c1ccc(Cl)cc1 has a documented growth of 38.9

In plain terms, Nc1c(C(=O)Nc2cccc(C(F)(F)F)c2)sc2nc3c(cc12)C(O)CCC3 (stereo not drawn) has a documented growth of 54.4

In plain terms, CC(=O)Nc1ccc2c(c1)/C(=C\C=C/c1ccc([N+](C)(C)C)cc1)c1ccccc1-2 has a documented growth of 67.1

In plain terms, O=C(NNC(=S)Nc1ccccc1)c1ccccn1 has a documented growth of 21.2

In plain terms, Oc1ccc(Cl)cc1-c1cc(-c2ccc(Cl)cc2)n[nH]1 has a documented growth of 34.5

In plain terms, C=CCn1c(C)nc2ccc(Nc3nc(Nc4ccc(F)cc4)nc4ccccc34)cc21 has a documented growth of 51.1

* * *

# Test system: SK-MEL-5 melanoma
# protocol: NCI-60 one-dose screen, 48 h
# assay.conditions: 10 µM unless noted
About 83,000 compounds went through this panel and 20% of them were active in at least one assay; those are over-represented in the sample as a whole. Active and inactive are the calls of the source. The calls were made as follows: active = growth percent below 10; inactive = the rest.
Returns: one label drawn from TRUE = active, FALSE = inactive

Please share the test call associated with COc1ccc(OC)c(/C=C2\Oc3cc(OCCN4CCCC4)ccc3C2=O)c1 .
FALSE

Please share the test call associated with Cc1ccc(Cn2c(-c3cccs3)nc3ccccc32)cc1 .
FALSE

Please share the test call associated with CCC1CCc2nc3sc(C(=O)Nc4cccc(C)c4)c(N)c3cc2C1 (stereo not given) .
FALSE

Please share the test call associated with Cc1nn(-c2ccc(Cl)cc2)c(=O)n1CCOc1ccccc1Cl .
FALSE

Please share the test call associated with CCc1cccc(C)c1NC(=O)c1sc2nc3c(cc2c1N)C(=O)CCC3 .
FALSE

Please share the test call associated with COc1ccc(-c2nc3sccn3c2-c2ccnc(NCCCNS(=O)(=O)c3ccc4ccccc4c3)n2)cc1 .
FALSE

Please share the test call associated with CCC#CC[C@H]1C/C=C2/C(=O)C=C[C@@H]2C/C=C\CCCC(=O)O1 .
TRUE

Please share the test call associated with O=C(c1c[nH]c2ccccc12)C(Sc1nc2ccccc2c(=O)[nH]1)c1ccccc1 (stereo not given) .
FALSE

Please share the test call associated with NC(=O)NC(=O)/C=C/C(=O)OCCCl .
FALSE

Please share the test call associated with COc1ncc(-c2ccc3ncnc(Nc4cccc(Cl)c4)c3c2)cc1NS(=O)(=O)CCN1CCOCC1 .
TRUE

Please share the test call associated with COc1cc(OC)c(C(=O)/C=C/c2ccc(C(F)(F)F)cc2)c(OC)c1 .
FALSE

Please share the test call associated with O=c1[nH]c(CN2CCN(c3ccccc3F)CC2)nc2sc3c(c12)CCC3 .
FALSE

Please share the test call associated with O=C(CNc1c(Cl)cccc1Cl)Nc1ccc(-c2nc3ccccc3s2)cc1 .
FALSE

Please share the test call associated with CCNc1nc(N2CC(=O)Nc3cc(OC)ccc32)c2ccccc2n1 .
TRUE

Please share the test call associated with Cc1ccc(S(=O)(=O)N2CCC(C(=O)Nc3ccc(F)cc3F)CC2)cc1 .
FALSE

Please share the test call associated with C=C1C(=O)O[C@H]2[C@H]1CC/C(COC(=O)NCc1cc(OC)cc(OC)c1)=C\CC[C@@]1(C)O[C@@H]21 .
FALSE

Please share the test call associated with c1cncc(CNc2ccccc2-c2nnc(Nc3ccc4c(c3)OCCO4)o2)c1 .
TRUE

Please share the test call associated with CCCC(C(=O)OCC)C(C)OC(=O)OCC (stereo not given) .
FALSE

Please share the test call associated with O=C(Nc1ccc(I)cc1)c1cc([N+](=O)[O-])ccc1O .
TRUE

Please share the test call associated with CC(C)(C)OC(=O)N1C/C(=C\c2cccs2)C(=O)/C(=C/c2cccs2)C1 .
FALSE

Please share the test call associated with CC1Cc2c(N(C)C)ncnc2N(C)c2ccc(O)cc21 (stereo not given) .
FALSE

Please share the test call associated with CCCCCCCCCCCCOB(OCCCCCCCCCCCC)OCCCCCCCCCCCC .
FALSE

Please share the test call associated with COc1ccc(C2=CC(c3ccc(Oc4ccnc5cc(Cl)ccc45)c(OC)c3)c3c(nc(OC)[nH]c3=O)N2)cc1 (stereo not given) .
FALSE

Please share the test call associated with O=C(NNC(=S)Nc1ccccc1)c1ccccn1 .
FALSE

Please share the test call associated with COc1cc(C(=O)OCCCCCCCCCCC[P+](c2ccccc2)(c2ccccc2)c2ccccc2)ccc1O .
TRUE

Please share the test call associated with CCOC(=O)C1=C(C)NC(=O)NC1c1ccc(OCC(=O)N/N=C/c2ccc(Cl)cc2)cc1 (stereo not given) .
FALSE

Please share the test call associated with OC1CC2c3ccccc3C1c1ccccc12 (stereo not given) .
FALSE

Please share the test call associated with Cc1cccc(NC(=O)c2sc3nc4c(cc3c2N)CCC4)c1C .
FALSE

Please share the test call associated with CC(C)CCN(CCCNc1c2c(nc3ccccc13)CCCC2)CCC(C)C .
FALSE

Please share the test call associated with NC(=S)NN=C1CCCCC1 .
FALSE

Please share the test call associated with Clc1cccc(Cl)c1Cn1c(-c2cncs2)nc2ccccc21 .
FALSE

Please share the test call associated with Nc1cc2c(cc1N)-c1cc(N)c(N)cc1C2 .
FALSE

Please share the test call associated with Cc1nc2scc(-c3ccccc3)n2c(=O)c1CCO .
FALSE

Please share the test call associated with CC/C=C\C[C@H](O)C/C=C1/C(=O)C(Cl)=C[C@@H]1C/C=C\CCCC(=O)O .
FALSE

Please share the test call associated with O=C(Nc1cccc(Cl)c1)c1cc([N+](=O)[O-])ccc1O .
FALSE

Please share the test call associated with CCCCCCCCCCn1cc[n+](C)c1 .
TRUE

Please share the test call associated with CCN(CC)c1cc(/C=C/c2ccc(OC)c(OC)c2)nc2cc(F)c(F)cc12 .
FALSE

Please share the test call associated with Cc1cc(-c2ccccc2)c(C)n1Cc1ccc(Cl)cc1 .
FALSE

Please share the test call associated with NS(=O)(=O)c1ccc(NCC(=O)Nc2ccc(-c3nc4ccccc4s3)cc2)cc1 .
FALSE

Please share the test call associated with CCCCCCCCCCCCCCCCC(Br)C(=O)O (stereo not given) .
FALSE
